Target: T1, GPR39 (G protein coupled receptor 39) (UniProt O43194 1-453, limits assumed)
T1 sequence (looked up): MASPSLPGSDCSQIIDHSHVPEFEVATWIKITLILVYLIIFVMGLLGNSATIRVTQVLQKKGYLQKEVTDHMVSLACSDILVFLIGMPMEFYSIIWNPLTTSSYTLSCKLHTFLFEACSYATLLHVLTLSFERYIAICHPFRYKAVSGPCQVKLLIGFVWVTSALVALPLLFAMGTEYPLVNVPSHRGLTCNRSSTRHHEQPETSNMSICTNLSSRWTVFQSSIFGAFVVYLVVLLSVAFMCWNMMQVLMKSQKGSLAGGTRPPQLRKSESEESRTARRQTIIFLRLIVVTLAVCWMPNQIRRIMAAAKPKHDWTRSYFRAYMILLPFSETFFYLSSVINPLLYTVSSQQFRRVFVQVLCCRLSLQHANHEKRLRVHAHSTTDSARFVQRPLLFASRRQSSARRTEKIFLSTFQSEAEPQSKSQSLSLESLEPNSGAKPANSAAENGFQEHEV
Test: cell-based or functional assay
Square brackets hold non-standard residues; d marks the D form. Ends that are not written are not given here. * marks the point of attachment. Tyr(3-Cl) = N[C@@H](Cc1ccc(O)c(Cl)c1)C(=O)O; dPhe(4-Br) = N[C@H](Cc1ccc(Br)cc1)C(=O)O; dPhe(4-Me) = Cc1ccc(C[C@@H](N)C(=O)O)cc1; Trt = c1ccc(C(c2ccccc2)(c2ccccc2)*)cc1; Benzhydryl = c1ccc(C(c2ccccc2)*)cc1; Octanoyl = CCCCCCCC(=O)*; Bn = c1ccc(C*)cc1
EC50; SRE-luciferase reporter values by entry

{"columns": ["BINDER", "EC50; SRE-luciferase reporter / nM"],
 "data": [
  ["H(Benzhydryl)K(Octanoyl)[dPhe(4-Me)][Tyr(3-Cl)]-OH [HKFY-67]", 43],
  ["H(Bn)K(Octanoyl)FY [HKFY-3]", 4130],
  ["H(Trt)K(Octanoyl)[dPhe(4-Br)]Y-OH [HKFY-29]", 310]
]}

Values were extracted from patent US20250340591A1.
